The reported numbers originate from patent US10059741B2.

test system: Madin Darby canine kidney (MDCK) cells; details: run with Influenza A H7N9 A/Anhui/1/2013; Visual
endpoint.name: CC50

Lookup: Please report the recorded CC50 for NC(=O)c1ncn([C@@H]2O[C@H](CO)[C@@H](O)[C@H]2O)n1 [Ribavirin, reference compound] .
Found: > 1000 µM

###

test system: H7N9 A/Anhui/1/2013; assay: microbe, parasite or virus in culture; format: cell-based, influenza A virus; settings: read-out: EC50
Bridge positions count the residues as written; N and C are the ends. Square brackets hold non-standard residues; d marks the D form. Peptide text beside a SMILES is read from it. S5 = C=CCCC[C@](C)(N)C(=O)O; Nle = CCCC[C@H](N)C(=O)O; Aib = CC(C)(N)C(=O)O
EC50 overview
Give just the numeric value; µM need not be written.

>>> quantitative_readout("CCCC[C@H](NC(C)=O)C(=O)N[C@@H](CC(=O)O)C(=O)N[C@H](C(=O)N[C@@H](CC(N)=O)C(=O)N[C@@]1(C)CCCC=CCCC[C@@](C)(C(=O)N[C@@H](CC(C)C)C(=O)N[C@@H](C)C(=O)N[C@H](C(=O)N[C@@H](CCC(N)=O)C(=O)NC(C)(C)C(=O)N[C@@H](C)C(=O)N[C@@H](C)C(=O)N[C@@H](C)C(N)=O)C(C)C)NC(=O)[C@H](CC(C)C)NC(=O)[C@H](CC(C)C)NC(=O)[C@H]([C@@H](C)O)NC1=O)C(C)C [SP-21] (Ac-[Nle]DVN[S5]TLL[S5]LAVQ[Aib]AAA-NH2; staple 5-9)")
17

Could you now look at the following molecule, please?
Lookup: Please report the recorded EC50 for CCCC[C@H](NC(C)=O)C(=O)N[C@@H](CC(=O)O)C(=O)N[C@H](C(=O)N[C@@H](CC(N)=O)C(=O)N[C@@]1(C)CCCC=CCCC[C@@](C)(C(=O)N[C@@H](CC(C)C)C(=O)N[C@@H](C)C(=O)N[C@H](C(=O)N[C@@H](CCC(N)=O)C(=O)N[C@@H](C)C(=O)N[C@@H](C)C(=O)NC(C)(C)C(=O)N[C@@H](C)C(N)=O)C(C)C)NC(=O)[C@H](CC(C)C)NC(=O)[C@H](CC(C)C)NC(=O)[C@H]([C@@H](C)O)NC1=O)C(C)C [SP-22] (Ac-[Nle]DVN[S5]TLL[S5]LAVQAA[Aib]A-NH2; staple 5-9) .
Found: 13

###

experiment: in vitro; conditions: dog, CC50, MDCK cells; run with Influenza A H1N1 California/07/2009; Neutral Red
Bridge positions count the residues as written; N and C are the ends. Square brackets hold non-standard residues; d marks the D form. Peptide text beside a SMILES is read from it. S5 = C=CCCC[C@](C)(N)C(=O)O; Nle = CCCC[C@H](N)C(=O)O; Aib = CC(C)(N)C(=O)O
endpoint.name: CC50

>>> result("CCCC[C@H](NC(C)=O)C(=O)N[C@@H](CC(=O)O)C(=O)N[C@H](C(=O)N[C@@H](CC(N)=O)C(=O)N[C@@]1(C)CCCC=CCCC[C@@](C)(C(=O)N[C@@H](CC(C)C)C(=O)N[C@@H](CCCCN)C(=O)N[C@@H](C)C(=O)NC(C)(C)C(=O)N[C@@H](C)C(=O)N[C@@H](CCC(N)=O)C(N)=O)NC(=O)[C@H](CC(C)C)NC(=O)[C@H](CC(C)C)NC(=O)[C@H]([C@@H](C)O)NC1=O)C(C)C [SP-1] (Ac-[Nle]DVN[S5]TLL[S5]LKA[Aib]AQ-NH2; staple 5-9)")
"> 100 µM"

Lookup: Please report the recorded CC50 for CCCC[C@H](NC(C)=O)C(=O)N[C@@H](CC(=O)O)C(=O)N[C@H](C(=O)N[C@@H](CC(N)=O)C(=O)N[C@@]1(C)CCCC=CCCC[C@@](C)(C(=O)N[C@@H](CC(C)C)C(=O)N[C@@H](C)C(=O)N[C@H](C(=O)NC(C)(C)C(=O)N[C@@H](C)C(=O)N[C@@H](CCC(N)=O)C(=O)N[C@@H](C)C(=O)N[C@@H](C)C(N)=O)C(C)C)NC(=O)[C@H](CC(C)C)NC(=O)[C@H](CC(C)C)NC(=O)[C@H]([C@@H](C)O)NC1=O)C(C)C [SP-7] (Ac-[Nle]DVN[S5]TLL[S5]LAV[Aib]AQAA-NH2; staple 5-9) .
Found: > 100 µM

###

test: in vitro; conditions: dog, CC50, MDCK cells; run with Influenza A H1N1 California/07/2009; Neutral Red
Bridge positions count the residues as written; N and C are the ends. Square brackets hold non-standard residues; d marks the D form. Peptide text beside a SMILES is read from it. S5 = C=CCCC[C@](C)(N)C(=O)O; Nle = CCCC[C@H](N)C(=O)O; Aib = CC(C)(N)C(=O)O
endpoint.name: CC50

Lookup: Please report the recorded CC50 for CCCC[C@H](NC(C)=O)C(=O)N[C@@H](CC(=O)O)C(=O)N[C@H](C(=O)N[C@@H](CC(N)=O)C(=O)N[C@@]1(C)CCCC=CCCC[C@@](C)(C(=O)N[C@@H](CC(C)C)C(=O)N[C@@H](CCCCN)C(=O)N[C@H](C(=O)NC(C)(C)C(=O)N[C@@H](C)C(=O)N[C@@H](C)C(N)=O)C(C)C)NC(=O)[C@H](CC(C)C)NC(=O)[C@H](CC(C)C)NC(=O)[C@H]([C@@H](C)O)NC1=O)C(C)C [SP-2] (Ac-[Nle]DVN[S5]TLL[S5]LKV[Aib]AA-NH2; staple 5-9) .
Found: > 100 µM

###

test: in vitro; conditions: dog, CC50, MDCK cells; run with Influenza A H1N1 Solomon Is./03/2006; Neutral Red
Bridge positions count the residues as written; N and C are the ends. Square brackets hold non-standard residues; d marks the D form. Peptide text beside a SMILES is read from it. S5 = C=CCCC[C@](C)(N)C(=O)O; Nle = CCCC[C@H](N)C(=O)O; Aib = CC(C)(N)C(=O)O
endpoint.name: CC50

Lookup: Please report the recorded CC50 for CCCC[C@H](NC(C)=O)C(=O)N[C@@H](CC(=O)O)C(=O)N[C@H](C(=O)N[C@@H](CC(N)=O)C(=O)N[C@@]1(C)CCCC=CCCC[C@@](C)(C(=O)N[C@@H](CC(C)C)C(=O)N[C@@H](C)C(=O)N[C@H](C(=O)NC(C)(C)C(=O)N[C@@H](C)C(=O)N[C@@H](CCC(N)=O)C(N)=O)C(C)C)NC(=O)[C@H](CC(C)C)NC(=O)[C@H](CC(C)C)NC(=O)[C@H]([C@@H](C)O)NC1=O)C(C)C [SP-6] (Ac-[Nle]DVN[S5]TLL[S5]LAV[Aib]AQ-NH2; staple 5-9) .
Found: > 100 µM

###

experiment: in vitro; conditions: dog, CC50, MDCK cells; run with Influenza A H1N1 California/07/2009; Neutral Red
Bridge positions count the residues as written; N and C are the ends. Square brackets hold non-standard residues; d marks the D form. Peptide text beside a SMILES is read from it. S5 = C=CCCC[C@](C)(N)C(=O)O; Nle = CCCC[C@H](N)C(=O)O; Aib = CC(C)(N)C(=O)O
endpoint.name: CC50

Lookup: Please report the recorded CC50 for CCCC[C@H](NC(C)=O)C(=O)N[C@@H](CC(=O)O)C(=O)N[C@H](C(=O)N[C@@H](CC(N)=O)C(=O)N[C@@]1(C)CCCC=CCCC[C@@](C)(C(=O)N[C@@H](CC(C)C)C(=O)N[C@@H](CCCCN)C(=O)N[C@H](C(=O)N2CCC[C@H]2C(=O)NC(C)(C)C(=O)N[C@@H](CCC(N)=O)C(N)=O)C(C)C)NC(=O)[C@H](CC(C)C)NC(=O)[C@H](CC(C)C)NC(=O)[C@H]([C@@H](C)O)NC1=O)C(C)C [SP-3] (Ac-[Nle]DVN[S5]TLL[S5]LKVP[Aib]Q-NH2; staple 5-9) .
Found: > 100 µM

###

test: in vitro; conditions: dog, CC50, run with Influenza A H3N2 Perth/16/2009, last run; Neutral Red
Bridge positions count the residues as written; N and C are the ends. Square brackets hold non-standard residues; d marks the D form. Peptide text beside a SMILES is read from it. S5 = C=CCCC[C@](C)(N)C(=O)O; Nle = CCCC[C@H](N)C(=O)O; Aib = CC(C)(N)C(=O)O
CC50 overview

>>> result("CCCC[C@H](NC(C)=O)C(=O)N[C@@H](CC(=O)O)C(=O)N[C@H](C(=O)N[C@@H](CC(N)=O)C(=O)N[C@@]1(C)CCCC=CCCC[C@@](C)(C(=O)N[C@@H](CC(C)C)C(=O)N[C@@H](C)C(=O)N[C@H](C(=O)N[C@@H](CCC(N)=O)C(=O)N[C@@H](C)C(=O)N[C@@H](C)C(=O)NC(C)(C)C(=O)N[C@@H](C)C(N)=O)C(C)C)NC(=O)[C@H](CC(C)C)NC(=O)[C@H](CC(C)C)NC(=O)[C@H]([C@@H](C)O)NC1=O)C(C)C [SP-22] (Ac-[Nle]DVN[S5]TLL[S5]LAVQAA[Aib]A-NH2; staple 5-9)")
"> 100 µM"

Lookup: Please report the recorded CC50 for CCCC[C@H](NC(C)=O)C(=O)N[C@@H](CC(=O)O)C(=O)N[C@H](C(=O)N[C@@H](CC(N)=O)C(=O)N[C@@]1(C)CCCC=CCCC[C@@](C)(C(=O)N[C@@H](CC(C)C)C(=O)N[C@@H](C)C(=O)N[C@H](C(=O)N[C@@H](CCC(N)=O)C(=O)NC(C)(C)C(=O)N[C@@H](C)C(=O)N[C@@H](C)C(=O)N[C@@H](C)C(N)=O)C(C)C)NC(=O)[C@H](CC(C)C)NC(=O)[C@H](CC(C)C)NC(=O)[C@H]([C@@H](C)O)NC1=O)C(C)C [SP-21] (Ac-[Nle]DVN[S5]TLL[S5]LAVQ[Aib]AAA-NH2; staple 5-9) .
Found: > 100 µM
